Hi there, I'd appreciate the recorded LC retention time for every entry that follows.
- testDetails: RP, Waters CORTECS UPLC C18, 100 × 2.1 mm, 1.6 µm, 40 °C, 0.4 mL/min, estimated dead time 0.55 min; A: water + 0.1% formic acid, pH 3; B: acetonitrile + 0.1% formic acid, pH 3; gradient (min/%B) 0/5 1.12/5 6.41/99.5 10.01/99.5
- measurementParameters: stereoisomer not certain
Counter-ions that a name gives are not always drawn.
Give bare numbers, in min.

These recorded examples may help you get a feel for the data.
compound	outputUnit	LC retention time
CCOC(=O)CC(SP(=O)(OC)OC)C(=O)OCC (stereo not drawn) [Malaoxon]	min	4.05
O=c1[nH]c2c(c(=O)n1C1CCCCC1)CCC2 [Lenacil]	min	3.96
COC=C(C(=O)OC)c1ccccc1Oc1cc(Oc2ccccc2C#N)ncn1 [Azoxystrobin]	min	4.91
O=C(O)c1ccccn1 [PICOLINATE]	min	0.719
CCCCCCCCCCCCC[n+]1cccc(S(=O)(=O)[O-])c1 [C13-APS]	min	5.19
O=C(O)c1ccc[nH]1 [PYRROLE-2-CARBOXYLATE]	min	0.766
CC(CCC(=O)NCCS(=O)(=O)O)C1CCC2C3C(O)CC4CC(O)CCC4(C)C3CC(O)C12C (stereo not drawn) [Taurocholic acid sodium salt hydrate]	min	3.74

Now let's try a different one.
// LC retention time lookup, key: CCCCCCCCCCCCCCCCCC(=O)OC(CC(=O)[O-])C[N+](C)(C)C [Stearoyl-L-carnitine]
5.89

* * *

- testDetails: RP, Waters CORTECS UPLC C18, 100 × 2.1 mm, 1.6 µm, 40 °C, 0.4 mL/min, estimated dead time 0.55 min; A: water + 0.1% formic acid, pH 3; B: acetonitrile + 0.1% formic acid, pH 3; gradient (min/%B) 0/5 1.12/5 6.41/99.5 10.01/99.5
- measurementParameters: stereoisomer not certain
Give measured LC retention time for each item. Keep answers brief.
Give bare numbers, in min.

Check out these entries, answers already filled in.
Cc1nnc(-c2ccccc2)c(=O)n1N 3.09
CCCCc1c(C)nc(NCC)[nH]c1=O 3.01

Okay, now this compound:
Could you share which LC retention time value was measured for Cc1nc(N(C)C)nc(OC(=O)N(C)C)c1C ?
3.06

* * *

- testDetails: RP, Waters CORTECS UPLC C18, 100 × 2.1 mm, 1.6 µm, 40 °C, 0.4 mL/min, estimated dead time 0.55 min; A: water + 0.1% formic acid, pH 3; B: acetonitrile + 0.1% formic acid, pH 3; gradient (min/%B) 0/5 1.12/5 6.41/99.5 10.01/99.5
- measurementParameters: stereoisomer not certain
resultType: LC retention time (min)
Numbers only, in min.

molecule	LC retention time / min
CC(C)(C)c1ccc(CSc2cnn(C(C)(C)C)c(=O)c2Cl)cc1	6.5

For every item in the list below, what is its measured LC retention time?
1. COC(=O)C=C(C)OP(=O)(OC)OC
2. CC12CCC(=O)C=C1CCC1C2CCC2(C)C1CCC2(O)C(=O)CO (centres undefined) [CORTEXOLONE]
3. CC(C)C1CCC(Cc2ccc(Cl)cc2)C1(O)Cn1cncn1 (centres undefined)
4. CON(C)C(=O)Nc1ccc(Cl)c(Cl)c1

1. 3.41
2. 4.05
3. 5.48
4. 4.8

* * *

- testDetails: RP, Waters CORTECS UPLC C18, 100 × 2.1 mm, 1.6 µm, 40 °C, 0.4 mL/min, estimated dead time 0.55 min; A: water + 0.1% formic acid, pH 3; B: acetonitrile + 0.1% formic acid, pH 3; gradient (min/%B) 0/5 1.12/5 6.41/99.5 10.01/99.5
- measurementParameters: stereoisomer not certain
Task for the reader: assign each of the following compounds its reported LC retention time.
Give bare numbers, in min.

Here is how some compounds turned out for LC retention time.
compound	observedValue
C=CCNC(=O)c1c([Si](C)(C)C)sc(C)c1C	5.36
Cc1cc2nc3c(=O)[nH]c(=O)nc-3n(CC(O)C(O)C(O)COP(=O)(O)OP(=O)(O)OCC3OC(n4cnc5c(N)ncnc54)C(O)C3O)c2cc1C (centres undefined)	2.34
N[C@@H](Cc1cc(I)c(O)c(I)c1)C(=O)O	2.69

We next turn to a different compound, shown below.
Given Cn1c(=O)[nH]c2ncn(C)c2c1=O , state its recorded LC retention time.
2.15

* * *

- testDetails: RP, Waters CORTECS UPLC C18, 100 × 2.1 mm, 1.6 µm, 40 °C, 0.4 mL/min, estimated dead time 0.55 min; A: water + 0.1% formic acid, pH 3; B: acetonitrile + 0.1% formic acid, pH 3; gradient (min/%B) 0/5 1.12/5 6.41/99.5 10.01/99.5
- measurementParameters: stereoisomer not certain
resultType: LC retention time (min)
Answers are plain numbers, in min.

Example entries begin here.
compound	resultType	observedValue
CNC(=O)C(C)SCCSP(=O)(OC)OC (centres undefined)	LC retention time	3.02
CCNc1nc(NC(C)CC)nc(OC)n1 (centres undefined)	LC retention time	3.53
O=C(NC(=O)c1c(F)cccc1F)Nc1ccc(OC(F)(F)C(F)OC(F)(F)F)c(Cl)c1 (centres undefined)	LC retention time	5.71

Now, please, on to the next compound.
Please give the measured LC retention time for this compound: CCCCCCCCCCCCCC[n+]1cccc(S(=O)(=O)[O-])c1
5.49
